tested_on: human CB2 receptors (Homo sapiens, UniProt P34972)
Sequence (P34972 whole entry): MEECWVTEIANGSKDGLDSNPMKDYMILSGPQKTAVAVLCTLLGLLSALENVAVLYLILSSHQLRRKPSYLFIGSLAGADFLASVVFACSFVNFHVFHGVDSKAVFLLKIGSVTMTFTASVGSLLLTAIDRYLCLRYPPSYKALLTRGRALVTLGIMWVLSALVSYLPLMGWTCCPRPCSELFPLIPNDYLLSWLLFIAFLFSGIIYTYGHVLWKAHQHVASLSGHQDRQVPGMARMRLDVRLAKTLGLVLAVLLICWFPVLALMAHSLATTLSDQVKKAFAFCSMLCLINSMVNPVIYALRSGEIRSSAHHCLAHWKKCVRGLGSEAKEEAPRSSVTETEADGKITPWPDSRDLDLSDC
So basically: is Ki under 1000 nM? Then Met. Not under? Then Not met.

Previously resolved entries follow.
CCN(CC)c1ccc(CN(Cc2cc(OC)c(OC)c(OC)c2)S(=O)(=O)c2cccc(C)c2)cc1 Met
CCN(CC)c1ccc(CN(Cc2cc(OC)c(OC)c(OC)c2)S(=O)(=O)c2ccc(OC)cc2)cc1 Met
CCN(CC)c1ccc(CNCc2ccc3c(c2)OCO3)cc1 Not met
CCN(CC)c1ccc(CN(Cc2ccc3c(c2)OCO3)S(=O)(=O)c2ccc(C=O)cc2)cc1 Not met
CCN(CC)c1ccc(CN(Cc2cc(OC)c(OC)c(OC)c2)S(=O)(=O)c2ccc3ccccc3c2)cc1 Met

Hello, I'm reviewing records and need to know if Ki of `CCN(CC)c1ccc(CN(Cc2cccnc2)C(=O)c2cnc3ccccc3n2)cc1` is below 1000 nM. Could you check?
Not met
